# Test system: 186277-243-T-J2-PDC complex spheroid growth;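 also: luminescent signal used as a stand-in for viable cell amount; spheroids exposed to compounds for seven days before the viability read; 100% = DMSO vehicle control wells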
# Protocol description: Anticancer human tumor 186277-243-T-J2-PDC patient-derived colon adenocarcinoma cell line growth inhibition [AhR]
# Protocol conditions: second compound 0.316 µM; first compound 0.0316 µM; active compounds read low
Reported viability, T/C values for the following compounds.
Give the quantity in %, number only.

Worked examples, 3 compounds total:
compound="Nc1ncn(C2CC(O)C(CO)O2)c(=O)n1 (centres undefined) + Cc1ccccc1N=Nc1ccc(NC(=O)c2ccnn2C)c(C)c1" observation_type="viability, T/C" observed_measurement=108
compound="CC1COCCN1c1cc(-c2ccnn2C)c2ccnc(-c3ccn[nH]3)c2n1 (centres undefined) + Cc1ccccc1N=Nc1ccc(NC(=O)c2ccnn2C)c(C)c1" observation_type="viability, T/C" observed_measurement=93.9
compound="CC1COCCN1c1cc(-c2ccnn2C)c2ccnc(-c3ccn[nH]3)c2n1 (centres undefined) + CC(CO)NC(=O)c1cc(-c2ccc(Cl)cc2)nn(-c2cnn(C)c2)c1=O" observation_type="viability, T/C" observed_measurement=37.5

# input for lookup
**Q:** Provide the documented viability, T/C with 186277-243-T-J2-PDC complex spheroid growth as the system for CC[C@@]1(O)C(=O)OCc2c1cc1n(c2=O)Cc2cc3c(CN(C)C)c(O)ccc3nc2-1 + CC(CO)NC(=O)c1cc(-c2ccc(Cl)cc2)nn(-c2cnn(C)c2)c1=O
**A:** 30.1
